tested on: PC-3 cells; test: Methylene blue survival assay; assay type: cell-based; details: Homo sapiens, 72-hr treatment, read-out: IC50 (μm) PC-3
pIC50: −log10 of the molar value.
Please note: 1 (yes) applies when pIC50 is 5 or greater, and 0 (no) applies otherwise.

{"chemical.string": "O=C(Nc1nc2ccccc2nc1Nc1ccc(F)cc1)c1ccc2c(c1)OCO2", "system.tested": "PC-3 cells", "class.assignment": "0 (no)"}
{"chemical.string": "Cc1cccc(Nc2nc3ccccc3nc2Nc2cccc(C)c2C)c1C", "system.tested": "PC-3 cells", "class.assignment": "0 (no)"}
{"chemical.string": "Fc1ccc(Nc2nc3ccccc3nc2Nc2ccc(F)cc2)cc1", "system.tested": "PC-3 cells", "class.assignment": "1 (yes)"}
{"chemical.string": "O=C(Nc1nc2ccccc2nc1Nc1ccc(F)cc1)c1ccccc1", "system.tested": "PC-3 cells", "class.assignment": "0 (no)"}
